Measured values drawn from patent US5597823A for this set.

# tgt: α-1B adrenoceptor (rat spleen) (Rattus norvegicus, UniProt P15823)
# Construct: PE-induced contraction of rat spleen; from tissue; host or cells: rat spleen
# Sequence (P15823 1-515): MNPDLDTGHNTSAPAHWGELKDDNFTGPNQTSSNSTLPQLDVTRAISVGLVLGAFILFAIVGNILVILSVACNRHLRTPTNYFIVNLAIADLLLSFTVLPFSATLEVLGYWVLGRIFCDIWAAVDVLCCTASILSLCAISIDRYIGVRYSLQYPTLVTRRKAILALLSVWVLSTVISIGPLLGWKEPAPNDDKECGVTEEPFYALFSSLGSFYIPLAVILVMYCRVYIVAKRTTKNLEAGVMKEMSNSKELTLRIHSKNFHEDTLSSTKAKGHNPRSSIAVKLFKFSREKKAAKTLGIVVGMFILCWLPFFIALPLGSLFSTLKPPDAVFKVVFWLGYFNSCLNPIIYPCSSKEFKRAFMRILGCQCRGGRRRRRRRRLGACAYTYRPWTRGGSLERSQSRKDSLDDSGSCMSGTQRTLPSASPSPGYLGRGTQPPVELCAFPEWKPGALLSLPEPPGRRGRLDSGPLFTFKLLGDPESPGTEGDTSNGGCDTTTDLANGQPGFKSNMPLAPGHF
# assay-remarks: Functional antagonism: phenylephrine (PE)-induced contraction of rat spleen
# Assay type: cell-based
# test-parameters: vs phenylephrine; Schild plot; read-out: pA2 Rat Spleen [α-1B] (converted)
Structures can show the parent of a compound that is named as a salt.
We use 40 nM as the dividing line for Kb: on or above the line is yes (1), below is no (0).

Here's what some known entries look like.
# molecule, category
records = [
    ("COc1cnc2c(n1)sc1c(=O)n(CCN3C[C@@H]4CCc5c(OC)cccc5[C@@H]4C3)c(=O)[nH]c12 [Example 89, hydrochloride]", "no (0)"),
    ("COc1cccc2c1CC[C@H]1CN(CCn3c(=O)[nH]c4c(sc5ccc(O)nc54)c3=O)C[C@@H]21 [Example 107, dihydrochloride]", "no (0)"),
    ("COc1cccc2c1CC[C@H]1CN(CCn3c(=O)[nH]c4c(sc5nc(Cl)cnc54)c3=O)C[C@@H]21 [Example 88, hydrochloride]", "yes (1)"),
    ("COc1cccc2c1CC[C@@H]1CN(CCn3c(=O)[nH]c4c(sc5ccccc54)c3=O)C[C@H]21 [Example 8, hydrochloride]", "yes (1)"),
]

Item COc1cccc2c1CC[C@H]1CN(CCn3c(=O)[nH]c4c(sc5cnccc54)c3=O)C[C@@H]21 [Example 36, dihydrochloride] with Kb of 40 nM or above?
no (0)

Reported Kb at or above 40 nM? COc1cccc2c1CC[C@H]1CN(CCn3c(=O)[nH]c4c([nH]c5ccccc54)c3=O)C[C@@H]21 [Example 26, hydrochloride]
no (0)
